Each entry below carries its recorded Accumulative excretion percentage.
Experiment: Fecal excretion study in rats after oral NS, SF or CNS (LC–MS/MS)
Assay type: in vivo
Conditions: rat feces, oral CNS 110 mg/kg, 24 h
Protocol: The animal room was set at constant temperature of 20 ± 2 °C with humidity of 50 ± 20% and 12/12 h light/dark cycle. Eighteen male rats were fasted for 12 h before starting the experiment. […] The urine volume was recorded and the dry feces were measured for each collection period. […] The accumulative excretion percentage was calculated for each analyte as follows. […]
Response body: numeric value in %, unit text excluded.

Some compounds with recorded Accumulative excretion percentage:
INSERT INTO results (compound, unit_spec, measured) VALUES
  ('CC(C)=CCC[C@](C)(O[C@@H]1O[C@H](CO)[C@@H](O)[C@H](O)[C@H]1O)[C@H]1CC[C@]2(C)[C@@H]1[C@H](O)C[C@@H]1[C@@]3(C)CC[C@H](O[C@@H]4O[C@H](CO)[C@@H](O)[C@H](O)[C@H]4O[C@@H]4O[C@H](CO)[C@@H](O)[C@H](O)[C@H]4O)C(C)(C)[C@@H]3CC[C@]12C [ginsenoside Rd]', '%', 1.453),
  ('CC(C)=CCC[C@](C)(O[C@@H]1O[C@H](CO)[C@@H](O)[C@H](O)[C@H]1O)[C@H]1CC[C@]2(C)[C@@H]1[C@H](O)C[C@@H]1[C@@]3(C)CC[C@H](O)C(C)(C)[C@@H]3[C@@H](O[C@@H]3O[C@H](CO)[C@@H](O)[C@H](O)[C@H]3O)C[C@]12C [ginsenoside Rg1]', '%', 2.331);

Please look at the following compound next.
Param item = CC(C)=CCC[C@](C)(O[C@@H]1O[C@H](CO[C@@H]2O[C@H](CO)[C@@H](O)[C@H](O)[C@H]2O)[C@@H](O)[C@H](O)[C@H]1O)[C@H]1CC[C@]2(C)[C@@H]1[C@H](O)C[C@@H]1[C@@]3(C)CC[C@H](O[C@@H]4O[C@H](CO)[C@@H](O)[C@H](O)[C@H]4O[C@@H]4O[C@H](CO)[C@@H](O)[C@H](O)[C@H]4O)C(C)(C)[C@@H]3CC[C@]12C [ginsenoside Rb1] ; retrieve measured Accumulative excretion percentage.
1.282
